tested on: A498; assay: NCI tumour cell line growth inhibition, 48 h
The source made the active and inactive calls. Rule as the data show it: active = GI50 up to about 1.1 µM and inactive = higher.
ASSAY METRIC: GI50

[[record]]
compound = "Cc1ccc(/C=N/Nc2ccccn2)s1"
target_or_system = "A498"
result = "> 100 µM (inactive)"

[[record]]
compound = "OC1(CCc2ccccc2)COC(C(F)(F)F)(C(F)(F)F)C1 (configuration not stated)"
target_or_system = "A498"
result = "> 100 µM (inactive)"

[[record]]
compound = "Oc1c2ccccc2c2c3c(cccc13)N=N2"
target_or_system = "A498"
result = "7.03 µM (inactive)"

[[record]]
compound = "COC(=O)C1=NC(=S)NC(c2ccccc2)C1c1nc2ccccc2o1 (configuration not stated)"
target_or_system = "A498"
result = "> 50 µM (inactive)"

[[record]]
compound = "Cc1cc(N(CCC#N)CCC#N)ccc1/C=C1\\N=C(c2cc([N+](=O)[O-])ccc2Cl)N(NC(=O)c2ccc(/N=C\\c3ccc(N(CCC#N)S(C)(=O)=O)cc3C)cc2)C1=O"
target_or_system = "A498"
result = "> 100 µM (inactive)"

[[record]]
compound = "Nc1ccc2cc(S(=O)(=O)O)cc(O)c2c1/N=N/c1ccc(NC(=O)Nc2ccc(/N=N/c3c(N)ccc4cc(S(=O)(=O)O)cc(O)c34)c(S(=O)(=O)O)c2)cc1S(=O)(=O)O"
target_or_system = "A498"
result = "> 100 µM (inactive)"

[[record]]
compound = "Nc1nc(-c2ccc3ccccc3c2)cc(-c2cc(-c3ccc4ccccc4c3)nc(N)n2)n1"
target_or_system = "A498"
result = "> 100 µM (inactive)"

[[record]]
compound = "CC(C)N(C(=O)C1(O)c2ccccc2C=Cc2ccccc21)C(C)C"
target_or_system = "A498"
result = "16.3 µM (inactive)"

[[record]]
compound = "CC1=NC(C)(C)N(O)C1(C)C"
target_or_system = "A498"
result = "> 100 µM (inactive)"

[[record]]
compound = "CN(C)NC(=O)/C(=C/c1ccc(Cl)cc1)NC(=O)c1ccccc1"
target_or_system = "A498"
result = "> 100 µM (inactive)"

[[record]]
compound = "O=C1c2ccccc2C(=O)c2c(NC3CCCCC3)ccc(Nc3ccc(S(=O)(=O)O)cc3)c21"
target_or_system = "A498"
result = "> 100 µM (inactive)"

[[record]]
compound = "COC(=O)C(C(=O)C(=O)Nc1ccc(C)cc1C)c1nc2ccc([N+](=O)[O-])cc2nc1O (configuration not stated)"
target_or_system = "A498"
result = "> 100 µM (inactive)"


Hey, just so you know, these numbers are from ChEMBL document CHEMBL1201862.
